# Species on record: Rattus norvegicus
# ASSAY_NAME: Open TG-GATES - Regimen: Daily Repeat
# Assay type: toxicity, organism-based, Sprague-Dawley
# Set-up: regimen Daily Repeat, gender Male, age 6 weeks
# CONDITION_DESCRIPTION: in vivo, po, 100 mg/kg, […], tissue Plasma, route gavage, dose level Low, time 7 day
Give measured BUN for each item. Keep answers brief.
Numbers only, in mg/dL.

COMPOUND: CCN1CCCC1CNC(=O)c1cc(S(N)(=O)=O)ccc1OC (centres undefined) [SULPIRIDE]
BUN / mg/dL: 14.8

Would you mind listing BUN for each of the following compounds?
1. CC(C)(S)[C@@H](N)C(=O)O [PENICILLAMINE]
2. O=C(N[C@H](CO)[C@H](O)c1ccc([N+](=O)[O-])cc1)C(Cl)Cl [CHLORAMPHENICOL]
3. O=C(O)c1cccnc1 [NIACIN]

**Result**
17
13.6
17.2

###

Give measured K for each item. Keep answers brief.
# Species: Rattus norvegicus
# ASSAY_NAME: Open TG-GATES - Regimen: Daily Repeat
# Format: toxicity, organism-based, Sprague-Dawley
# Parameters: regimen Daily Repeat, gender Male, age 6 weeks
# CONDITION_DESCRIPTION: in vivo, po, 1000 mg/kg, […], tissue Plasma, route gavage, dose level High, time 7 day

Some solved entries appear below for comparison.
MOLECULE: CCN1CCCC1CNC(=O)c1cc(S(N)(=O)=O)ccc1OC (centres undefined) [SULPIRIDE]
K: 4.3 meq/L
//
MOLECULE: O=C(N[C@H](CO)[C@H](O)c1ccc([N+](=O)[O-])cc1)C(Cl)Cl [CHLORAMPHENICOL]
K: 4.1 meq/L
//
MOLECULE: O=C(O)c1cccnc1 [NIACIN]
K: 4.5 meq/L

**Query** State the recorded K for this entry: CC(C)(S)[C@@H](N)C(=O)O [PENICILLAMINE]
**Result** 3.8 meq/L

###

Give measured Na for each item. Keep answers brief.
# Species on record: Rattus norvegicus
# ASSAY_NAME: Open TG-GATES - Regimen: Single
# Assay type: toxicity, organism-based, Sprague-Dawley
# Design: regimen Single, gender Male, age 6 weeks
# CONDITION_DESCRIPTION: in vivo, po, 0 mg/kg, 3 h, tissue Plasma, route gavage, dose level Control
Give bare numbers, in meq/L.

COMPOUND: CC(C)C(=O)Nc1ccc([N+](=O)[O-])c(C(F)(F)F)c1 [FLUTAMIDE]
RESULT_NUMBER: 140
//
COMPOUND: CC(C)(S)[C@@H](N)C(=O)O
RESULT_NUMBER: 141.8
//
COMPOUND: CCc1oc2ccccc2c1C(=O)c1cc(I)c(O)c(I)c1
RESULT_NUMBER: 141.4
//
COMPOUND: O=C(N[C@H](CO)[C@H](O)c1ccc([N+](=O)[O-])cc1)C(Cl)Cl
RESULT_NUMBER: 139.8

Would you mind listing Na for each of the following compounds?
1. CCSCC[C@H](N)C(=O)O
2. Nc1nc(N)c2nc(-c3ccccc3)c(N)nc2n1
3. CN1C(=O)OC(C)(C)C1=O
4. C#C[C@]1(O)CC[C@H]2[C@@H]3CCc4cc(O)ccc4[C@H]3CC[C@@]21C
5. C[C@]12CCC(=O)C=C1CC[C@@H]1[C@@H]2CC[C@@]2(C)[C@H]1CC[C@]2(C)O
6. CC(=O)Oc1cc(C(C)C)c(OCCN(C)C)cc1C

**Result**
1: 140.2; 2: 143.2; 3: 140.6; 4: 142.4; 5: 142; 6: 141.6

Reference for the values: ChEMBL document CHEMBL3885861
